# assay.summary: activity coefficient (dimensionless); of the first substance listed, at infinite dilution; xn = mol fraction of the nth substance listed
# cond: 348.15 K; Liquid; Chromatography; x1 = 0
Give measured activity coefficient for each item. Keep answers brief.
A bare number is all that is needed in reply.

# activity coefficient of CCC(=O)CC [pentan-3-one] + CCCCn1cc[n+](C)c1.N#CN=C=[N-] = 2.38

# activity coefficient of CCC(C)O (centres undefined) [butan-2-ol] + CCCCn1cc[n+](C)c1.N#CN=C=[N-] = 1.17

# activity coefficient of CC(C)CO [2-methyl-1-propanol] + CCCCn1cc[n+](C)c1.N#CN=C=[N-] = 1.09

# activity coefficient of CCCO [propan-1-ol] + CCCCn1cc[n+](C)c1.N#CN=C=[N-] = 0.853

###

# assay.summary: activity coefficient (dimensionless); of the first substance listed, at infinite dilution; xn = mol fraction of the nth substance listed
# cond: 348.15 K; Liquid; Chromatography; x1 = 0
value.type: activity coefficient
A bare number is all that is needed in reply.

# activity coefficient of Cc1ccccc1 [toluene] + CCCCn1cc[n+](C)c1.N#CN=C=[N-] = 3.27

# activity coefficient of CC(C)(C)O [2-methylpropan-2-ol] + CCCCn1cc[n+](C)c1.N#CN=C=[N-] = 1.19

# activity coefficient of c1ccncc1 [pyridine] + CCCCn1cc[n+](C)c1.N#CN=C=[N-] = 0.985

# activity coefficient of C=CCCCCCCCC [1-decene] + CCCCn1cc[n+](C)c1.N#CN=C=[N-] = 119

# activity coefficient of CCC[N+](=O)[O-] [1-nitropropane] + CCCCn1cc[n+](C)c1.N#CN=C=[N-] = 1.41

# activity coefficient of C1CCCCC1 [cyclohexane] + CCCCn1cc[n+](C)c1.N#CN=C=[N-] = 23.7

# activity coefficient of C1COCCO1 [1,4-dioxane] + CCCCn1cc[n+](C)c1.N#CN=C=[N-] = 1.28

# activity coefficient of C=CCCCC [hex-1-ene] + CCCCn1cc[n+](C)c1.N#CN=C=[N-] = 25.1

# activity coefficient of CCCC=O [butanal] + CCCCn1cc[n+](C)c1.N#CN=C=[N-] = 1.8

# activity coefficient of C1CCCCCC1 [cycloheptane] + CCCCn1cc[n+](C)c1.N#CN=C=[N-] = 29.1

# activity coefficient of C=C(C)c1ccccc1 [(1-methylethenyl)benzene] + CCCCn1cc[n+](C)c1.N#CN=C=[N-] = 4.02

# activity coefficient of C=CCCC [1-pentene] + CCCCn1cc[n+](C)c1.N#CN=C=[N-] = 17.3

###

# assay.summary: activity coefficient (dimensionless); of the first substance listed, at infinite dilution; xn = mol fraction of the nth substance listed
# cond: 348.15 K; Liquid; Chromatography; x1 = 0
Rule: activity coefficient of 5 or more gives TRUE; anything lower gives FALSE.

Exercise: API: above_or_equal(metric=activity coefficient, cutoff=5) for item Cc1cccc(C)c1 [1,3-dimethylbenzene] + CCCCn1cc[n+](C)c1.N#CN=C=[N-]
Solution: TRUE

Exercise: API: above_or_equal(metric=activity coefficient, cutoff=5) for item COC(C)=O [methyl ethanoate] + CCCCn1cc[n+](C)c1.N#CN=C=[N-]
Solution: FALSE

Exercise: API: above_or_equal(metric=activity coefficient, cutoff=5) for item CO [methanol] + CCCCn1cc[n+](C)c1.N#CN=C=[N-]
Solution: FALSE

Exercise: API: above_or_equal(metric=activity coefficient, cutoff=5) for item CCCCCCCCCC [decane] + CCCCn1cc[n+](C)c1.N#CN=C=[N-]
Solution: TRUE

Exercise: API: above_or_equal(metric=activity coefficient, cutoff=5) for item CCCCCC [hexane] + CCCCn1cc[n+](C)c1.N#CN=C=[N-]
Solution: TRUE

Exercise: API: above_or_equal(metric=activity coefficient, cutoff=5) for item CCCC(=O)OC [methyl butanoate] + CCCCn1cc[n+](C)c1.N#CN=C=[N-]
Solution: FALSE

Exercise: API: above_or_equal(metric=activity coefficient, cutoff=5) for item CCOCC [diethyl ether] + CCCCn1cc[n+](C)c1.N#CN=C=[N-]
Solution: TRUE

Exercise: API: above_or_equal(metric=activity coefficient, cutoff=5) for item CC(C)O [propan-2-ol] + CCCCn1cc[n+](C)c1.N#CN=C=[N-]
Solution: FALSE

Exercise: API: above_or_equal(metric=activity coefficient, cutoff=5) for item CCCc1ccccc1 [propylbenzene] + CCCCn1cc[n+](C)c1.N#CN=C=[N-]
Solution: TRUE

Exercise: API: above_or_equal(metric=activity coefficient, cutoff=5) for item CCCCCCC [heptane] + CCCCn1cc[n+](C)c1.N#CN=C=[N-]
Solution: TRUE

Exercise: API: above_or_equal(metric=activity coefficient, cutoff=5) for item CCO [ethanol] + CCCCn1cc[n+](C)c1.N#CN=C=[N-]
Solution: FALSE

Exercise: API: above_or_equal(metric=activity coefficient, cutoff=5) for item CCOC(C)(C)C [2-ethoxy-2-methylpropane] + CCCCn1cc[n+](C)c1.N#CN=C=[N-]
Solution: TRUE

Exercise: API: above_or_equal(metric=activity coefficient, cutoff=5) for item CCC(C)CC [3-methylpentane] + CCCCn1cc[n+](C)c1.N#CN=C=[N-]
Solution: TRUE

Exercise: API: above_or_equal(metric=activity coefficient, cutoff=5) for item CC1CCCCC1 [methylcyclohexane] + CCCCn1cc[n+](C)c1.N#CN=C=[N-]
Solution: TRUE
